Measured Minimal Inhibitory Concentration (MIC) RESISTANT by item
Test system: Enterococcus faecium and faecalis (RESISTANT)
Format: cell-based
condition.details: geometric mean of 4-6 isolates
The reply should be a number, written without any unit.

smiles_str=C[C@@H]1O[C@@H](O[C@@H]2c3ccc(c(Cl)c3)Oc3cc4cc(c3O[C@@H]3O[C@H](CO)[C@@H](O)[C@H](O)[C@H]3O[C@H]3C[C@](C)(NCc5ccc(-c6ccc(Cl)cc6)cc5)[C@@H](O)[C@H](C)O3)Oc3ccc(cc3Cl)[C@@H](O)[C@@H](NCCCCCCc3ccccc3)C(=O)N[C@@H](CC(N)=O)C(=O)N[C@H]4C(=O)N[C@H]3C(=O)N[C@@H]2C(=O)N[C@H](C(=O)O)c2cc(O)cc(O)c2-c2cc3ccc2O)C[C@](C)(N)[C@H]1O quantitative_readout=6.7

As a next step, examine the compound that follows.
// field: Minimal Inhibitory Concentration (MIC) RESISTANT; key: C[C@@H]1O[C@@H](O[C@@H]2c3ccc(c(Cl)c3)Oc3cc4cc(c3O[C@@H]3O[C@H](CO)[C@@H](O)[C@H](O)[C@H]3O[C@H]3C[C@](C)(NCc5ccc(-c6ccccc6)cc5)[C@@H](O)[C@H](C)O3)Oc3ccc(cc3Cl)[C@@H](O)[C@@H](NCc3ccc(-c5ccccc5)cc3)C(=O)N[C@@H](CC(N)=O)C(=O)N[C@H]4C(=O)N[C@H]3C(=O)N[C@@H]2C(=O)N[C@H](C(=O)O)c2cc(O)cc(O)c2-c2cc3ccc2O)C[C@](C)(N)[C@H]1O ; value = 53
